SYSTEM: Metabotropic glutamate receptor 5 (Rattus norvegicus)
Sequence (P31424 whole entry): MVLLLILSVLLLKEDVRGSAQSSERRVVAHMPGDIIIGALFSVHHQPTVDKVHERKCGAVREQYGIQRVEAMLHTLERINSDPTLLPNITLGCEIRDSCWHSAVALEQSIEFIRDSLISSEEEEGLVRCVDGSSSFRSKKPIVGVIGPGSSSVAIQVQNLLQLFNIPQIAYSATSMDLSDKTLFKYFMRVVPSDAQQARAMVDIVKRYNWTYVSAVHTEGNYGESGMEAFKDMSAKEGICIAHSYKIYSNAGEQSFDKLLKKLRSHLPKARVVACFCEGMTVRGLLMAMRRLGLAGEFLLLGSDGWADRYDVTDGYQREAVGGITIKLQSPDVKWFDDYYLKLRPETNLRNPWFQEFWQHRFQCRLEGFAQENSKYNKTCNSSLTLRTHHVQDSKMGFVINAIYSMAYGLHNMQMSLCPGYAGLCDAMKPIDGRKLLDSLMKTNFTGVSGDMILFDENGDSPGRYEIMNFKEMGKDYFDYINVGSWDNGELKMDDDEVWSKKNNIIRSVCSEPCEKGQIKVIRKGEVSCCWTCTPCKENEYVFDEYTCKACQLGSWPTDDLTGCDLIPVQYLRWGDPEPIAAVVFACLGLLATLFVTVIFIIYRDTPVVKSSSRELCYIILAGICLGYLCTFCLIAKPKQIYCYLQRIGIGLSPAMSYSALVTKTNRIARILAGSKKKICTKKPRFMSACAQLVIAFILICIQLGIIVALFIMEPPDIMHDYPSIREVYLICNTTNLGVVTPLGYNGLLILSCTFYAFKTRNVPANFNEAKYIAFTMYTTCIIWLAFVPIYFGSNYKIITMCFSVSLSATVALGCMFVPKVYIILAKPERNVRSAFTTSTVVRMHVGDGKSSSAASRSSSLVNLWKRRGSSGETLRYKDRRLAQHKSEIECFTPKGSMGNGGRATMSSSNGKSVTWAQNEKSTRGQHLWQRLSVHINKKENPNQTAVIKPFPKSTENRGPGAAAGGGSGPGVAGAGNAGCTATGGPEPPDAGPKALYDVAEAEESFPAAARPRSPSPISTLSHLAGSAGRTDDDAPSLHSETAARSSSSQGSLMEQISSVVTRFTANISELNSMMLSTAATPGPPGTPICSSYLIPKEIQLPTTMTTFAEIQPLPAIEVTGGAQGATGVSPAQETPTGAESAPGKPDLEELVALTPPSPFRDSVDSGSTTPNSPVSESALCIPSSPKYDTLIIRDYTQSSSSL
EXPERIMENT_DESCRIPTION: Negative allosteric modulation of mGlu5 receptor in primary E17 rat embryo neuron assessed as ca2+ level by fluo-4/AM assay
As shown below, each of these compounds has a reported log10(IC50) value.
Each number you see is log10 of IC50, and the unit inside the log is nM.

For orientation, consider the following solved cases.
| MOLECULE_SMILES | OBSERVED |
| --- | --- |
| N#Cc1cc(F)cc(S(=O)(=O)c2sc3ncc(N)cc3c2-c2ccc(F)cc2)c1 | 0.81 |
| Nc1cnc2sc(S(=O)(=O)c3ccc(Cl)cc3)c(-c3ccc(Cl)cc3)c2c1 | 1.89 |
| N#Cc1cccc(S(=O)(=O)c2sc3ncccc3c2-c2cccc(Cl)c2)c1 | 1.65 |
| O=S(=O)(c1ccc(Cl)cc1)c1sc2ncccc2c1-c1ccccc1F | 2.13 |
| Cc1ccc(-c2c(S(=O)(=O)c3ccc(Cl)cc3)sc3ncccc23)cc1 | 2.05 |
| O=S(=O)(c1ccc(Cl)cc1)c1sc2ncc(Cl)cc2c1-c1ccc(Cl)cc1 | 2.56 |
| Nc1ccc2c(-c3ccc(Cl)cc3)c(S(=O)(=O)c3ccc(Cl)cc3)sc2n1 | 2.57 |
| N#Cc1cccc(S(=O)(=O)c2sc3nc(F)ccc3c2-c2ccc(Cl)cc2)c1 | 1.68 |

Using the record for N#Cc1cc(F)cc(S(=O)(=O)c2sc3nc(F)ccc3c2-c2cccc(F)c2)c1 , report its log10(IC50).
0.69

Using the record for O=S(=O)(c1ccc(Cl)cc1)c1sc2ncccc2c1-c1ccccc1Cl , report its log10(IC50).
2.24

Using the record for O=S(=O)(c1ccc(Cl)cc1)c1sc2nc(F)ccc2c1-c1ccc(Cl)cc1 , report its log10(IC50).
2.24
